Measurement Notes: Proposed mechanism(s) of liver damage. [column 'MEC' in source]
Assay Conditions: human
Attribute Measured: Hepatotoxicity (mechanism)

Q. Item under review: NCC(=O)CCC(=O)O [AMINOLEVULINIC ACID] . Reported Hepatotoxicity (mechanism)?
A. Dose-dependant

Q. Bench note: what Hepatotoxicity (mechanism) did CN(Cc1cnc2nc(N)nc(N)c2n1)c1c(Cl)cc(C(=O)N[C@@H](CCC(=O)O)C(=O)O)cc1Cl show?
A. Dose-dependant

Q. Entry O=C1OCCN1/N=C/c1ccc([N+](=O)[O-])o1 [FURAZOLIDONE] has what Hepatotoxicity (mechanism)?
A. Allergic

Q. Form field: reported Hepatotoxicity (mechanism) of C[C@H]1c2cccc(O)c2C(=O)C2=C(O)[C@]3(O)C(=O)C(C(N)=O)=C(O)[C@@H](N(C)C)[C@@H]3[C@@H](O)[C@@H]21.O [DOXYCYCLINE]
A. Allergic

Kindly consider the entry below.
Q. Name the recorded Hepatotoxicity (mechanism) for CN[C@@H]1[C@H](O[C@H]2[C@H](O[C@H]3[C@H](O)[C@@H](O)[C@H](NC(=N)N)[C@@H](O)[C@@H]3NC(=N)N)O[C@@H](C)[C@]2(O)CO)O[C@@H](CO)[C@H](O)[C@H]1O [DIHYDROSTREPTOMYCIN] .
A. Allergic

* * *

This listing pairs molecules with measured Hepatotoxicity (moderate).
Assay Conditions: human, serum
Field format: numeric only.

Some solved cases for reference:
Q. Hepatotoxicity (moderate) for CC(C)(CNC(N)=O)NCC(O)COC(=O)c1ccccc1F (centres undefined) [FLESTOLOL] ?
A. 2

Q. // Hepatotoxicity (moderate) lookup, key: C[C@@H]1C[C@H]2[C@@H]3CCC4=CC(=O)C=C[C@]4(C)C3=CC[C@]2(C)[C@H]1C(=O)CN1CCN(c2cc(N3CCCC3)nc(N3CCCC3)n2)CC1 [TIRILAZAD]
A. 2

Q. Data request, read-out Hepatotoxicity (moderate), for COc1ccc2cc([C@H](C)C(=O)O)ccc2c1 [NAPROXEN]
A. 13

Q. Fill blank: measured Hepatotoxicity (moderate) of the molecule NCC[C@H](O)C(=O)N[C@@H]1C[C@H](N)[C@@H](O[C@H]2O[C@H](CN)CC[C@H]2N)[C@H](O)[C@H]1O[C@H]1O[C@H](CO)[C@@H](O)[C@H](N)[C@H]1O [ARBEKACIN] is ____.
A. 30

Q. // Hepatotoxicity (moderate) lookup, key: Nc1cc(-c2ccncc2)c[nH]c1=O [INAMRINONE]
A. 9

Q. Value lookup for Hepatotoxicity (moderate); key = CO[C@]12CC[C@@]3(C[C@@H]1[C@](C)(O)C(C)(C)C)[C@H]1Cc4ccc(O)c5c4[C@@]3(CCN1CC1CC1)[C@H]2O5 [BUPRENORPHINE]
A. 1

Q. May I ask what Hepatotoxicity (moderate) has been recorded for Cc1cc2c(cc1CC(=O)c1sccc1S(=O)(=O)Nc1onc(C)c1Cl)OCO2 [SITAXENTAN] ?
A. 1

Q. # query: Hepatotoxicity (moderate) of entry Nc1c2c(nc3ccccc13)CCCC2 [TACRINE]
A. 38

New cases:
Q. Record request: Hepatotoxicity (moderate) value, item C[C@]1(O)CC[C@H]2[C@@H]3CCC4=CC(=O)CC[C@]4(C)[C@@]3(F)[C@@H](O)C[C@@]21C [FLUOXYMESTERONE]
A. 2

Q. Entry CC(C)NNC(=O)COc1ccc(Cl)cc1 [IPROCLOZIDE] : reported Hepatotoxicity (moderate) = ?
A. 0

Q. Would you kindly share the measured Hepatotoxicity (moderate) for COC(=O)c1nc2cc(Cl)c3cccnc3c2o1 [QUAZOLAST] ?
A. 1
